# credit: the EternaBench riboswitch data

Test system: MS2 coat protein
Assay: apparent Kd, MS2 coat protein; higher = weaker binding; RNA-MaP array; FMN 200 µM where present
Settings: ligand present: flavin mononucleotide; designed as: ON switch for flavin mononucleotide
Would you mind labelling by apparent Kd? At or over 90 nM is met, under is not met.

Consider the following illustrative entries.
>  <input sequence>
AAGUUUGUACGAGGAUAUCAGUUGUUUCUAAAUUCAACAUGAGGAUCACCCAUGUAACAAUGGAGUGAGAAGGCGUGUGGGCAA

>  <assay system>
MS2 coat protein

>  <class name>
met

$$$$
>  <input sequence>
GUGGUCAGACAUGAGGAUCACCCAUGUGGAAUAAAUAAGGACUAGGAUAUGGAAUAUAGGAUAUACCAGAAGGAGUGGUUGGUG

>  <assay system>
MS2 coat protein

>  <class name>
not met

$$$$

[ask] Dear colleague, could you confirm whether GUAUCUUAUGAGAAGGCGAUCAUGAAACAUGAUCGAGGAUAUCAUGUAAACAUGAGGAUCACCCAUGUAUGGGUAUUAUGGUAC has apparent Kd at or above 90 nM?
[reply] not met
